meta.source: paper PMC3034214

Parameter IC50: see the listing below.
- system.name: E. coli MurG (Escherichia coli)
measurement.label: IC50 (mM)

1. COC(=O)C1C(c2ccc(OC)c(OC)c2)NC2(C)C(=O)N(CC(=O)NCC3OC(n4ccc(=O)[nH]c4=O)C(O)C3O)C(=O)C12 (stereo not shown) [16d]
4
2. COc1ccccc1[C@H]1N[C@@](C)(C(=O)NCC(=O)NC[C@H]2O[C@@H](n3ccc(=O)[nH]c3=O)[C@H](O)[C@@H]2O)[C@H]2C(=O)N(c3ccccc3)C(=O)[C@@H]12 (mixture of isomers) [13b]
0.4

* * *

Parameter inhibition at 1000 µM: see the listing below.
- system.name: E. coli MurG (Escherichia coli)
- method: Coupled radiochemical MraY/MurG assay ([3H]-UDPGlcNAc incorporation into lipid intermediate II)
- condition.label: read-out: Percentage inhibition of E. coli MurG
measurement.label: inhibition at 1000 µM (%)

1. C[C@@]1(C(=O)NCC(=O)NC[C@H]2O[C@@H](n3ccc(=O)[nH]c3=O)[C@H](O)[C@@H]2O)N[C@H](C(O)CO)[C@@H]2C(=O)N(c3ccccc3)C(=O)[C@@H]21 (mixture of isomers) [13e]
0
2. COc1ccccc1[C@@H]1[C@@H]2C(=O)N(c3ccccc3)C(=O)[C@@H]2[C@H](C(=O)N(C)CC(=O)NC[C@H]2O[C@@H](n3ccc(=O)[nH]c3=O)[C@H](O)[C@@H]2O)N1C
31
3. COC(=O)[C@H]1[C@@H](c2ccccc2OC)N[C@@](C)(C(=O)N2CCC[C@H]2C(=O)NC[C@H]2O[C@@H](n3ccc(=O)[nH]c3=O)[C@H](O)[C@@H]2O)[C@@H]1C(=O)OC (mixture of isomers) [20c]
22
4. COC(=O)C1C(C(O)CO)NC2(C)C(=O)N(CC(=O)NCC3OC(n4ccc(=O)[nH]c4=O)C(O)C3O)C(=O)C12 (mixture of isomers) [15e]
27
5. COC(=O)[C@H]1[C@@H](c2ccccc2OC)N[C@@](C)(C(=O)N2CCC[C@H]2C(=O)NC[C@H]2O[C@@H](n3ccc(=O)[nH]c3=O)[C@H](O)[C@@H]2O)[C@H]1C(=O)OC (mixture of isomers) [20b]
0

* * *

Parameter inhibition at 1000 µM: see the listing below.
- system.name: E. coli MurG (Escherichia coli, UniProt P17443)
- Sequence (P17443 whole entry): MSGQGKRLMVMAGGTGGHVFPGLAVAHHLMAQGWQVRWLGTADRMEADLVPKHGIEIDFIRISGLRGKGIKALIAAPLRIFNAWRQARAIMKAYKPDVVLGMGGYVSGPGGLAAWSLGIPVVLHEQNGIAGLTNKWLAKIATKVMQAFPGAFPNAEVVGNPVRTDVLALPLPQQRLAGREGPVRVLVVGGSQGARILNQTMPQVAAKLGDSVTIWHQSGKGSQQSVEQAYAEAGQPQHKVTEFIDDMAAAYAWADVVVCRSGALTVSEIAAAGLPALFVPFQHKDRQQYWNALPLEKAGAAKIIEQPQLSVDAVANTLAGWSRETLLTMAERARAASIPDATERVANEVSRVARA
- method: Coupled radiochemical MraY/MurG assay ([3H]-UDPGlcNAc incorporation into lipid intermediate II)
- condition.label: read-out: Percentage inhibition of E. coli MurG
measurement.label: inhibition at 1000 µM (%)

1. COC(=O)C1C(c2ccc(OC)c(OC)c2)NC2(C)C(=O)N(CC(=O)NCC3OC(n4ccc(=O)[nH]c4=O)C(O)C3O)C(=O)C12 (stereo not drawn) [16d]
26
2. COc1ccccc1[C@H]1N[C@@](C)(COC(=O)CCC(=O)OC[C@H]2O[C@@H](n3ccc(=O)[nH]c3=O)[C@H](O)[C@@H]2O)[C@H]2C(=O)N(c3ccccc3)C(=O)[C@@H]12 (mixture of isomers)
15
3. COc1ccccc1[C@H]1N[C@@](C)(C(=O)NCC(=O)NC[C@H]2O[C@@H](n3ccc(=O)[nH]c3=O)[C@H](O)[C@@H]2O)[C@H]2C(=O)N(c3ccccc3)C(=O)[C@@H]12 (mixture of isomers) [13b]
85
4. COc1ccccc1[C@H]1N[C@@](C)(COC(=O)CC(=O)OC[C@H]2O[C@@H](n3ccc(=O)[nH]c3=O)[C@H](O)[C@@H]2O)[C@H]2C(=O)N(c3ccccc3)C(=O)[C@@H]12
17
5. COC(=O)[C@H]1[C@@H](c2ccccc2)N[C@@](C)(C(=O)NCC(=O)NC[C@H]2O[C@@H](n3ccc(=O)[nH]c3=O)[C@H](O)[C@@H]2O)[C@@H]1C(=O)OC (mixture of isomers) [14a]
0
6. CCN1C(=O)C2[C@@H](C1=O)[C@@H](C(O)CO)N[C@@]2(C)C(=O)N1CCC[C@H]1C(=O)NC[C@H]1O[C@@H](n2ccc(=O)[nH]c2=O)[C@H](O)[C@@H]1O (mixture of isomers) [20d]
0

* * *

- Tested on: Mycobacterium tuberculosis galactosyltransferase GlfT2
- Sequence (A0R628 whole entry): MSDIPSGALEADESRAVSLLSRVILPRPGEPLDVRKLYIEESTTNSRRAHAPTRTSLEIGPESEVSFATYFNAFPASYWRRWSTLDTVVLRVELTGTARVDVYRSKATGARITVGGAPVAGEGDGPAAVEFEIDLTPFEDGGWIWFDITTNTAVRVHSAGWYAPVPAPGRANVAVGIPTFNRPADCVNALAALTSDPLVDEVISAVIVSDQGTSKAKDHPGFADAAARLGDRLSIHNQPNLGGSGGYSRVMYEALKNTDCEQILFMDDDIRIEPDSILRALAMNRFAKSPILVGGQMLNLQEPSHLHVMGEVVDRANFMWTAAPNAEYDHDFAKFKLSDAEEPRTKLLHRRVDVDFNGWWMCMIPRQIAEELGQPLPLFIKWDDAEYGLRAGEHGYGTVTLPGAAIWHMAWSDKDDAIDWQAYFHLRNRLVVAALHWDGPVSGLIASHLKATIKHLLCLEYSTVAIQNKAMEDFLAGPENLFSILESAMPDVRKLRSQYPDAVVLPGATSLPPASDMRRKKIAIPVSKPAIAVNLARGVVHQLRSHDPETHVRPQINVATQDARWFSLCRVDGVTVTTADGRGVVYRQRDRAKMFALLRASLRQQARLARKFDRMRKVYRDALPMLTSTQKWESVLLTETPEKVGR
- method: Galactosyltransferase assay ([14C]Gal incorporation into Galf(β1→6)Galf-O-C8 acceptor, membranes and cell wall fraction)
- Type: biochemical
- condition.label: read-out: Percentage inhibition of Mt GTase (Mycobacterium tuberculosis galactosyl transferase)
Parameter inhibition at 1000 µM: see the listing below.
measurement.label: inhibition at 1000 µM (%)

1. C[C@@]1(C(=O)NCC(=O)NC[C@H]2O[C@@H](n3ccc(=O)[nH]c3=O)[C@H](O)[C@@H]2O)N[C@H](C(O)CO)[C@@H]2C(=O)N(c3ccccc3)C(=O)[C@@H]21 (mixture of isomers) [13e]
0
2. CCN1C(=O)C2[C@@H](C1=O)[C@@H](C(O)CO)N[C@@]2(C)C(=O)N1CCC[C@H]1C(=O)NC[C@H]1O[C@@H](n2ccc(=O)[nH]c2=O)[C@H](O)[C@@H]1O (mixture of isomers) [20d]
0
3. COc1cccc([C@H]2N[C@@](C)(C(=O)NCC(=O)NC[C@H]3O[C@@H](n4ccc(=O)[nH]c4=O)[C@H](O)[C@@H]3O)[C@H]3C(=O)N(c4ccccc4)C(=O)[C@@H]23)c1OC (mixture of isomers) [13c]
0

* * *

- system.name: E. coli MurG (Escherichia coli)
- method: Coupled radiochemical MraY/MurG assay ([3H]-UDPGlcNAc incorporation into lipid intermediate II)
- condition.label: read-out: Percentage inhibition of E. coli MurG
measurement.label: inhibition at 1000 µM (%)

1) COc1cccc([C@H]2N[C@@](C)(C(=O)NCC(=O)NC[C@H]3O[C@@H](n4ccc(=O)[nH]c4=O)[C@H](O)[C@@H]3O)[C@H]3C(=O)N(c4ccccc4)C(=O)[C@@H]23)c1OC (mixture of isomers) [13c]
0
2) COC(=O)[C@H]1[C@@H](c2ccccc2OC)N[C@@](C)(C(=O)NCC(=O)NC[C@H]2O[C@@H](n3ccc(=O)[nH]c3=O)[C@H](O)[C@@H]2O)[C@@H]1C(=O)OC (mixture of isomers) [14b]
32
